Tested on: Escherichia coli
Assay Remarks: Antibacterial activity against tetracycline-resistant Escherichia coli 1-849 assessed as growth inhibition
Type: functional
MIC values by entry
Report as a plain number; the unit µg/mL is understood.

These solved cases illustrate the format of a correct answer.
Compound | Target System | Unit Of Measure | Endpoint Result
CON(CC(=O)Nc1ccc2c(c1O)C(=O)C1=C(O)[C@]3(O)C(=O)C(C(N)=O)=C(O)[C@@H](N(C)C)[C@@H]3[C@@H](O)[C@@H]1[C@H]2C)C1O[C@H](CO)[C@@H](O)[C@H](O)[C@@H]1N (mixture of isomers) | Escherichia coli | µg/mL | 32
C[C@H]1c2cccc(O)c2C(=O)C2=C(O)[C@]3(O)C(=O)C(C(N)=O)=C(O)[C@@H](N(C)C)[C@@H]3[C@@H](O)[C@@H]21.O [DOXYCYCLINE] | Escherichia coli | µg/mL | 8
C=CCOC(=O)N[C@H]1C(N(CC(=O)Nc2ccc3c(c2O)C(=O)C2=C(O)[C@]4(O)C(=O)C(C(N)=O)=C(O)[C@@H](N(C)C)[C@@H]4[C@@H](O)[C@@H]2[C@H]3C)OC)O[C@H](CO)[C@@H](O)[C@@H]1O (mixture of isomers) | Escherichia coli | µg/mL | 16

Would you mind telling me what MIC value was observed for CON(CC(=O)Nc1ccc2c(c1O)C(=O)C1=C(O)[C@]3(O)C(=O)C(C(N)=O)=C(O)[C@@H](N(C)C)[C@@H]3[C@@H](O)[C@@H]1[C@H]2C)[C@H]1CC[C@H](N(C)C)[C@@H](C)O1 ?
32

* * *

Assay Remarks: Cytotoxicity against human A549 cells assessed as cell viability at 10 uM after 2 days by Alamar Blue assay relative to control
Type: cell-based
Conditions Used: read-out: Activity
Measurement Type: viability at 48 h, 10 µM (%)
Report as a plain number; the unit % is understood.

These solved cases illustrate the format of a correct answer.
Molecule | viability at 48 h, 10 µM / %
CON(CC(=O)Nc1ccc2c(c1O)C(=O)C1=C(O)[C@]3(O)C(=O)C(C(N)=O)=C(O)[C@@H](N(C)C)[C@@H]3[C@@H](O)[C@@H]1[C@H]2C)C1OC[C@H](O)[C@@H]1O (mixture of isomers) | 98.2
CON(CC(=O)Nc1ccc2c(c1O)C(=O)C1=C(O)[C@]3(O)C(=O)C(C(N)=O)=C(O)[C@@H](N(C)C)[C@@H]3[C@@H](O)[C@@H]1[C@H]2C)C1O[C@H](CO)[C@@H](O)[C@H](OC(C)C(=O)O)[C@H]1NC(C)=O (mixture of isomers) | 97.7
CON(CC(=O)Nc1ccc2c(c1O)C(=O)C1=C(O)[C@]3(O)C(=O)C(C(N)=O)=C(O)[C@@H](N(C)C)[C@@H]3[C@@H](O)[C@@H]1[C@H]2C)[C@@H]1O[C@H](CO)[C@@H](O)[C@H](O)[C@H]1N | 95.6
CONCC(=O)Nc1ccc2c(c1O)C(=O)C1=C(O)[C@]3(O)C(=O)C(C(N)=O)=C(O)[C@@H](N(C)C)[C@@H]3[C@@H](O)[C@@H]1[C@H]2C | 95.9

As a next step, examine the molecule that follows.
Would you mind telling me what viability at 48 h, 10 µM value was observed for CON(CC(=O)Nc1ccc2c(c1O)C(=O)C1=C(O)[C@]3(O)C(=O)C(C(N)=O)=C(O)[C@@H](N(C)C)[C@@H]3[C@@H](O)[C@@H]1[C@H]2C)C1O[C@H](CO)[C@@H](O)[C@H](O)[C@@H]1N (mixture of isomers) ?
97.1

* * *

Test system: Escherichia coli
Assay Remarks: Antibacterial activity against tetracycline-resistant Escherichia coli 1-849 assessed as growth inhibition
Type: functional
MIC values by entry
Report as a plain number; the unit µg/mL is understood.

Compound | MIC, µg/mL
CON(CC(=O)Nc1ccc2c(c1O)C(=O)C1=C(O)[C@]3(O)C(=O)C(C(N)=O)=C(O)[C@@H](N(C)C)[C@@H]3[C@@H](O)[C@@H]1[C@H]2C)C1OC[C@@H](O)[C@@H](O)[C@@H]1O (mixture of isomers) | 64
CON(CC(=O)Nc1ccc2c(c1O)C(=O)C1=C(O)[C@]3(O)C(=O)C(C(N)=O)=C(O)[C@@H](N(C)C)[C@@H]3[C@@H](O)[C@@H]1[C@H]2C)[C@H]1O[C@H](CO)[C@@H](O)[C@H](O)[C@H]1N | 4
CON(CC(=O)Nc1ccc2c(c1O)C(=O)C1=C(O)[C@]3(O)C(=O)C(C(N)=O)=C(O)[C@@H](N(C)C)[C@@H]3[C@@H](O)[C@@H]1[C@H]2C)[C@@H]1O[C@H](CO)[C@@H](O)[C@H](O)[C@H]1N | 32

As a next step, examine the compound that follows.
What reported MIC corresponds to C[C@H]1c2ccc(N)c(O)c2C(=O)C2=C(O)[C@]3(O)C(=O)C(C(N)=O)=C(O)[C@@H](N(C)C)[C@@H]3[C@@H](O)[C@@H]21 on Escherichia coli?
2

* * *

MIC values by entry
Tested on: Escherichia coli
Assay Remarks: Antibacterial activity against tetracycline-resistant Escherichia coli 1-849 assessed as growth inhibition
Format: functional
Report as a plain number; the unit µg/mL is understood.

These solved cases illustrate the format of a correct answer.
Compound | Target System | Endpoint Result
CON(CC(=O)Nc1ccc2c(c1O)C(=O)C1=C(O)[C@]3(O)C(=O)C(C(N)=O)=C(O)[C@@H](N(C)C)[C@@H]3[C@@H](O)[C@@H]1[C@H]2C)C1OC[C@H](O)[C@@H]1O (mixture of isomers) | Escherichia coli | 64
CONCC(=O)Nc1ccc2c(c1O)C(=O)C1=C(O)[C@]3(O)C(=O)C(C(N)=O)=C(O)[C@@H](N(C)C)[C@@H]3[C@@H](O)[C@@H]1[C@H]2C | Escherichia coli | 8
CON(CC(=O)Nc1ccc2c(c1O)C(=O)C1=C(O)[C@]3(O)C(=O)C(C(N)=O)=C(O)[C@@H](N(C)C)[C@@H]3[C@@H](O)[C@@H]1[C@H]2C)[C@@H]1O[C@H](CO)[C@@H](O)[C@H](O)[C@H]1NC(=O)C(F)(F)F | Escherichia coli | 32

As a next step, examine the compound that follows.
Would you mind telling me what MIC value was observed for CON(CC(=O)Nc1ccc2c(c1O)C(=O)C1=C(O)[C@]3(O)C(=O)C(C(N)=O)=C(O)[C@@H](N(C)C)[C@@H]3[C@@H](O)[C@@H]1[C@H]2C)C1O[C@H](CO)[C@@H](O)[C@H](OC(C)C(=O)O)[C@H]1NC(C)=O (mixture of isomers) ?
32

* * *

viability at 48 h, 10 µM values by entry
Assay Remarks: Cytotoxicity against human IMR90 cells assessed as cell viability at 10 uM after 2 days by Alamar Blue assay relative to control
Assay type: cell-based
Conditions Used: IMR-90 cells, read-out: Activity
Report as a plain number; the unit % is understood.

These solved cases illustrate the format of a correct answer.
Molecule | Unit Of Measure | Endpoint Result
CON(CC(=O)Nc1ccc2c(c1O)C(=O)C1=C(O)[C@]3(O)C(=O)C(C(N)=O)=C(O)[C@@H](N(C)C)[C@@H]3[C@@H](O)[C@@H]1[C@H]2C)C1O[C@H](CO)[C@@H](O)[C@H](O)[C@@H]1N (mixture of isomers) | % | 98.9
CON(CC(=O)Nc1ccc2c(c1O)C(=O)C1=C(O)[C@]3(O)C(=O)C(C(N)=O)=C(O)[C@@H](N(C)C)[C@@H]3[C@@H](O)[C@@H]1[C@H]2C)[C@@H]1O[C@H](CO)[C@@H](O)[C@H](O)[C@H]1N | % | 102
CON(CC(=O)Nc1ccc2c(c1O)C(=O)C1=C(O)[C@]3(O)C(=O)C(C(N)=O)=C(O)[C@@H](N(C)C)[C@@H]3[C@@H](O)[C@@H]1[C@H]2C)[C@@H]1O[C@H](CO)[C@@H](O)[C@H](O)[C@H]1NC(=O)C(F)(F)F | % | 109
CON(CC(=O)Nc1ccc2c(c1O)C(=O)C1=C(O)[C@]3(O)C(=O)C(C(N)=O)=C(O)[C@@H](N(C)C)[C@@H]3[C@@H](O)[C@@H]1[C@H]2C)[C@H]1O[C@H](CO)[C@@H](O)[C@H](O)[C@H]1N | % | 94.6

Would you mind telling me what viability at 48 h, 10 µM value was observed for CONCC(=O)Nc1ccc2c(c1O)C(=O)C1=C(O)[C@]3(O)C(=O)C(C(N)=O)=C(O)[C@@H](N(C)C)[C@@H]3[C@@H](O)[C@@H]1[C@H]2C ?
99.2
